# protocol.summary: Single dose PK in healthy subjects (Cohorts 1, 2, S1 and S2), plasma
# Format: in vivo, human
# assay.conditions: human, plasma, intravenous, 240 mg; 1.5 hr; read-out: Plasma concentration, Q1
# Source text: […]

| molecule | concentration at 1.5 hr [ng/mL] |
| --- | --- |
| COC(=O)N1CCC[C@H](NS(C)(=O)=O)[C@@H]1CO[C@H]1CC[C@@H](c2ccccc2)CC1 [Compound A] | 333 |

====

# protocol.summary: Single dose PK in healthy subjects (Cohorts 1, 2, S1 and S2), plasma
# Format: in vivo, human
# assay.conditions: human, plasma, intravenous, 112 mg; 1.5 hr; read-out: Plasma concentration, Maximum

| molecular.string | concentration at 1.5 h |
| --- | --- |
| COC(=O)N1CCC[C@H](NS(C)(=O)=O)[C@@H]1CO[C@H]1CC[C@@H](c2ccccc2)CC1 | 0.255 µg/mL |

====

# protocol.summary: Single dose PK in healthy subjects (Cohorts 1, 2, S1 and S2), plasma
# Type: in vivo, human
# assay.conditions: human, plasma, intravenous, 134.4 mg; 2 hr; read-out: Plasma concentration, Maximum

| molecular.string | unit.annotation | concentration at 2 h |
| --- | --- | --- |
| COC(=O)N1CCC[C@H](NS(C)(=O)=O)[C@@H]1CO[C@H]1CC[C@@H](c2ccccc2)CC1 | ng/mL | 335 |

====

# protocol.summary: Single dose PK in healthy subjects (Cohorts 1, 2, S1 and S2), plasma
# Assay type: in vivo, human
# assay.conditions: human, plasma, intravenous, 112 mg; 2 hr; read-out: Plasma concentration, Mean

| compound | concentration at 2 h, ng/mL |
| --- | --- |
| COC(=O)N1CCC[C@H](NS(C)(=O)=O)[C@@H]1CO[C@H]1CC[C@@H](c2ccccc2)CC1 [Compound A] | 200 |

====

# protocol.summary: Single dose PK in healthy subjects (Cohorts 1, 2, S1 and S2), plasma
# Type: in vivo, human
# assay.conditions: human, plasma, intravenous, 134.4 mg; 9 hr; read-out: Plasma concentration, Q3
recorded.metric: concentration at 9 h (ng/mL)

| molecule | recorded.metric | meas.value |
| --- | --- | --- |
| COC(=O)N1CCC[C@H](NS(C)(=O)=O)[C@@H]1CO[C@H]1CC[C@@H](c2ccccc2)CC1 [Compound A] | concentration at 9 h | 311 |

====

# protocol.summary: Single dose PK in healthy subjects (Cohorts 1, 2, S1 and S2), plasma
# Type: in vivo, human
# assay.conditions: human, plasma, intravenous, 28 mg; 1 hr; read-out: Plasma concentration, Q1
recorded.metric: concentration at 1 hr (ng/mL)

| molecular.string | recorded.metric | unit.annotation | meas.value |
| --- | --- | --- | --- |
| COC(=O)N1CCC[C@H](NS(C)(=O)=O)[C@@H]1CO[C@H]1CC[C@@H](c2ccccc2)CC1 | concentration at 1 hr | ng/mL | 36.5 |

====

# protocol.summary: Single dose PK in patients with narcolepsy (Cohorts 5, 6 and 7), plasma
# Type: in vivo, human
# assay.conditions: human, plasma, iv, 11.2 mg; 4 hr; NT1, single 9 h IV infusion; read-out: Plasma concentration, Median

| molecular.string | concentration at 4 h |
| --- | --- |
| COC(=O)N1CCC[C@H](NS(C)(=O)=O)[C@@H]1CO[C@H]1CC[C@@H](c2ccccc2)CC1 | 21.5 ng/mL |

====

# protocol.summary: Single dose PK in healthy subjects (Cohorts 1, 2, S1 and S2), plasma
# Type: in vivo, human
# assay.conditions: human, plasma, intravenous, 134.4 mg; 0.5 hr; read-out: Plasma concentration, Minimum

| molecular.string | concentration at 0.5 h (ng/mL) |
| --- | --- |
| COC(=O)N1CCC[C@H](NS(C)(=O)=O)[C@@H]1CO[C@H]1CC[C@@H](c2ccccc2)CC1 | 147 |

====

# protocol.summary: Single dose PK in healthy subjects (Cohorts 1, 2, S1 and S2), plasma
# Format: in vivo, human
# assay.conditions: human, plasma, iv, 240 mg, 240 mg single IV infusion, healthy subjects; read-out: AUC24 Median
recorded.metric: AUC (ng·h/mL)

| molecular.string | recorded.metric | meas.value |
| --- | --- | --- |
| COC(=O)N1CCC[C@H](NS(C)(=O)=O)[C@@H]1CO[C@H]1CC[C@@H](c2ccccc2)CC1 | AUC | 4400 |

====

# protocol.summary: Single dose PK in healthy subjects (Cohorts 1, 2, S1 and S2), plasma
# Assay type: in vivo, human
# assay.conditions: human, plasma, iv, 180 mg, 180 mg single IV infusion, healthy subjects; read-out: AUCinf Mean
# Description: […]
recorded.metric: AUC(0-inf) (ng·h/mL)

| molecular.string | meas.value |
| --- | --- |
| COC(=O)N1CCC[C@H](NS(C)(=O)=O)[C@@H]1CO[C@H]1CC[C@@H](c2ccccc2)CC1 | 3020 |

====

# protocol.summary: Single dose PK in healthy subjects (Cohorts 1, 2, S1 and S2), plasma
# Format: in vivo, human
# assay.conditions: human, plasma, iv, 240 mg, 240 mg single IV infusion; 1 hr; read-out: Plasma Concentration of Cmpd A, Q3
recorded.metric: concentration at 1 hr (ng/mL)

| molecule | meas.value |
| --- | --- |
| COC(=O)N1CCC[C@H](NS(C)(=O)=O)[C@@H]1CO[C@H]1CC[C@@H](c2ccccc2)CC1 [Compound A] | 418 |

====

# protocol.summary: Single dose PK in healthy subjects (Cohorts 1, 2, S1 and S2), plasma
# Assay type: in vivo, human
# assay.conditions: human, plasma, iv, 14 mg, 14 mg single IV infusion, healthy subjects; read-out: Cmax Geo Mean
recorded.metric: Cmax (ng/mL)

| molecular.string | recorded.metric | meas.value |
| --- | --- | --- |
| COC(=O)N1CCC[C@H](NS(C)(=O)=O)[C@@H]1CO[C@H]1CC[C@@H](c2ccccc2)CC1 | Cmax | 36.8 |

====

# protocol.summary: Single dose PK in healthy subjects (Cohorts 1, 2, S1 and S2), plasma
# Type: in vivo, human
# assay.conditions: human, plasma, intravenous, 240 mg; 0.5 hr; read-out: Plasma concentration, Mean

| molecular.string | concentration at 0.5 h [ng/mL] |
| --- | --- |
| COC(=O)N1CCC[C@H](NS(C)(=O)=O)[C@@H]1CO[C@H]1CC[C@@H](c2ccccc2)CC1 | 292 |

====

# protocol.summary: Single dose PK in healthy subjects (Cohorts 1, 2, S1 and S2), plasma
# Assay type: in vivo, human
# assay.conditions: human, plasma, intravenous, 180 mg; 4 hr; read-out: Plasma concentration, Maximum

| molecular.string | unit.annotation | concentration at 4 h |
| --- | --- | --- |
| COC(=O)N1CCC[C@H](NS(C)(=O)=O)[C@@H]1CO[C@H]1CC[C@@H](c2ccccc2)CC1 | ng/mL | 361 |

====

# protocol.summary: Single dose PK in patients with narcolepsy (Cohorts 5, 6 and 7), plasma
# Type: in vivo, human
# assay.conditions: human, plasma, intravenous, 11.2 mg, Cmpd A 11.2 mg; Geo Mean; Cohort 5, 6, 7; read-out: AUC24
recorded.metric: AUC (ng·h/mL)

| molecular.string | meas.value |
| --- | --- |
| COC(=O)N1CCC[C@H](NS(C)(=O)=O)[C@@H]1CO[C@H]1CC[C@@H](c2ccccc2)CC1 | 199 |

====

# protocol.summary: Single dose PK in healthy subjects (Cohorts 1, 2, S1 and S2), plasma
# Type: in vivo, human
# assay.conditions: human, plasma, iv, 28 mg, 28 mg single IV infusion, healthy subjects; read-out: AUC24 Geo Mean
recorded.metric: AUC (ng·h/mL)

| molecular.string | meas.value |
| --- | --- |
| COC(=O)N1CCC[C@H](NS(C)(=O)=O)[C@@H]1CO[C@H]1CC[C@@H](c2ccccc2)CC1 | 513 |

====

# protocol.summary: Single dose PK in healthy subjects (Cohorts 1, 2, S1 and S2), plasma
# Assay type: in vivo, human
# assay.conditions: human, plasma, intravenous, 112 mg; 4 hr; read-out: Plasma concentration, Q3
recorded.metric: concentration at 4 h (ng/mL)

| compound | meas.value |
| --- | --- |
| COC(=O)N1CCC[C@H](NS(C)(=O)=O)[C@@H]1CO[C@H]1CC[C@@H](c2ccccc2)CC1 [Compound A] | 252 |

====

# protocol.summary: Single dose PK in healthy subjects (Cohorts 1, 2, S1 and S2), plasma
# Assay type: in vivo, human
# assay.conditions: human, plasma, intravenous, 134.4 mg; 1 hr; read-out: Plasma concentration, Maximum

| molecular.string | concentration at 1 h (ng/mL) |
| --- | --- |
| COC(=O)N1CCC[C@H](NS(C)(=O)=O)[C@@H]1CO[C@H]1CC[C@@H](c2ccccc2)CC1 | 273 |
